Reported values of IC50 for individual entries
target of assay: Histone deacetylase 4 (Homo sapiens)
Sequence (P56524 whole entry): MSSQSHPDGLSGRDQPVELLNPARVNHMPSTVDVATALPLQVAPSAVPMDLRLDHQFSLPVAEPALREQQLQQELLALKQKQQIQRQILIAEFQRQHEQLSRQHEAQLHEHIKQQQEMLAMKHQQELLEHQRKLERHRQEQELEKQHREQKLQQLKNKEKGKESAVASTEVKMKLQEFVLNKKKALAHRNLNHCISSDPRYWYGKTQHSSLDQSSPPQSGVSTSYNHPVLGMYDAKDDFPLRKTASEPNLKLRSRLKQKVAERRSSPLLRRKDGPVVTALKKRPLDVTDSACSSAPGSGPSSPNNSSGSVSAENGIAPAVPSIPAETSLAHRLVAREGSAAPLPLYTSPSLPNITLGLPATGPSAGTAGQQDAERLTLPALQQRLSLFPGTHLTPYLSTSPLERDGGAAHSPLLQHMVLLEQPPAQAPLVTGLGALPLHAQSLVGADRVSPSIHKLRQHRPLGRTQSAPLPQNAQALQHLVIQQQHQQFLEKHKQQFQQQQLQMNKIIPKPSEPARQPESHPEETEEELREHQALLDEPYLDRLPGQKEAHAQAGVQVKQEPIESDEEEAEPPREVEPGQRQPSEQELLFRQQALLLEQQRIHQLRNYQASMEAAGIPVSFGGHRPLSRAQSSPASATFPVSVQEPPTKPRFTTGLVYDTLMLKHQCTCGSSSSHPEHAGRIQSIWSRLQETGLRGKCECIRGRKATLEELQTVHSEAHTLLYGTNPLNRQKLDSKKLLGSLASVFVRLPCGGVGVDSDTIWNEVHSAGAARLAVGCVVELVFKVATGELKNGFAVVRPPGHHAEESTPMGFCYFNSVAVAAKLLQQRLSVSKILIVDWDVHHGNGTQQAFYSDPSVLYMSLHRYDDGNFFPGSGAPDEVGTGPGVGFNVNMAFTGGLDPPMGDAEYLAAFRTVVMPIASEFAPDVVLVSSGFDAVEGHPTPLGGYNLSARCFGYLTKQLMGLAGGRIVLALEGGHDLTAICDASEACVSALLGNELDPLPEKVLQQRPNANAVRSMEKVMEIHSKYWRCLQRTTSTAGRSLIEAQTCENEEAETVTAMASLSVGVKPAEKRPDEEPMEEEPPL
experiment description: Inhibition of human recombinant HDAC4

- structure notation: "O=C(CCCCCCC(=O)C(F)(F)F)Nc1ccccc1"
  target of assay: "Histone deacetylase 4 (Homo sapiens)"
  qualifier operator: "="
  IC50 (nM): 40
- structure notation: "C[Si](O)(O)CCCCCCC(=O)Nc1ccccc1"
  target of assay: "Histone deacetylase 4 (Homo sapiens)"
  qualifier operator: ">"
  IC50 (nM): 100000

* * *

Reported values of IC50 for individual entries
target of assay: Histone deacetylase
Type: cell-based, Homo sapiens
setup conditions: hela

- compound: "NCC(=O)NCCCCCC(=O)Nc1ccccc1"
  target of assay: "Histone deacetylase"
  IC50: "> 100 µM"
- compound: "O=C(CCCCCSc1nc[nH]n1)Nc1ccccc1"
  target of assay: "Histone deacetylase"
  IC50: "8.1 µM"
- compound: "CCN(CC)C(=S)SSCCCCCC(=O)Nc1ccccc1"
  target of assay: "Histone deacetylase"
  IC50: "0.7 µM"
- compound: "O=C(CCCCCNP(=O)([O-])[O-])Nc1ccccc1.[K+].[K+]"
  target of assay: "Histone deacetylase"
  IC50: "70 µM"
- compound: "C[S+]([O-])CCCCCCC(=O)Nc1ccccc1 (centres undefined)"
  target of assay: "Histone deacetylase"
  IC50: "48 µM"
- compound: "CC(=O)O[C@H](C)C(=O)CCCCCCC(=O)Nc1ccccc1"
  target of assay: "Histone deacetylase"
  IC50: "63.8 µM"
- compound: "O=C(CCCCCCOP(=O)([O-])[O-])Nc1ccccc1.[K+].[K+]"
  target of assay: "Histone deacetylase"
  IC50: "3900 µM"
- compound: "O=C(CCCCOP(=O)([O-])[O-])Nc1ccccc1.[K+].[K+]"
  target of assay: "Histone deacetylase"
  IC50: "2200 µM"
- compound: "O=C(CCCCCCNCCS)Nc1ccccc1"
  target of assay: "Histone deacetylase"
  IC50: "> 100 µM"
- compound: "CCC(=O)CCCCCCC(=O)Nc1ccccc1"
  target of assay: "Histone deacetylase"
  IC50: "> 100 µM"
- compound: "O=C(CO)NCCCCCC(=O)Nc1ccccc1"
  target of assay: "Histone deacetylase"
  IC50: "> 100 µM"
- compound: "O=C(CCCCCOP(=O)([O-])[O-])Nc1ccccc1.[K+].[K+]"
  target of assay: "Histone deacetylase"
  IC50: "60 µM"
- compound: "CP(=O)([O-])CCCCCCC(=O)Nc1ccccc1.[Li+]"
  target of assay: "Histone deacetylase"
  IC50: "8200 µM"
- compound: "O=C(CCCCNP(=O)([O-])[O-])Nc1ccccc1.[K+].[K+]"
  target of assay: "Histone deacetylase"
  IC50: "360 µM"
- compound: "COc1cccc(NC(=O)CCCCCC(=O)Nc2ccccc2)c1"
  target of assay: "Histone deacetylase"
  IC50: "> 1000 µM"
- compound: "C[C@@H](O)C(=O)CCCCCCC(=O)Nc1ccccc1"
  target of assay: "Histone deacetylase"
  IC50: "8.9 µM"
- compound: "O=C(CCCCCOP([O-])([O-])=S)Nc1ccccc1.[K+].[K+]"
  target of assay: "Histone deacetylase"
  IC50: "50 µM"
- compound: "O=C(CCCCCCNP(=O)([O-])[O-])Nc1ccccc1.[K+].[K+]"
  target of assay: "Histone deacetylase"
  IC50: "490 µM"
- compound: "C[C@H](O)C(=O)CCCCCCC(=O)Nc1ccccc1"
  target of assay: "Histone deacetylase"
  IC50: "77.1 µM"

From: ChEMBL document CHEMBL5352506
